test system: LPS-induced IL-8 production; test: Inhibition of LPS-induced IL-8 production in human whole blood culture; assay type: cell-based; conditions: human whole blood culture, LPS 10 ng/ml, 6 h; IC50 by program calcdemo; read-out: IC50 to inhibit LPS-induced IL-8 production
property: IC50 (mM)
Reply with just the number (in mM).

Tell me the measured IC50 of COc1ccc2c(c1OC)C13CCN(C)C(C2)C1CC=NN(S(=O)(=O)c1ccc(C)cc1)C(O)C3 (stereo not shown) , please. 3.8

Tell me the measured IC50 of COC1=C[C@@H]2[C@@H]3Cc4ccc(OC)c(O)c4[C@]2(CCN3C(=O)c2cccnc2)CC1=O , please. 7.6

Tell me the measured IC50 of COC1=CC2[C@@H]3Cc4ccc(OC)c(O)c4[C@]2(CCN3C)CC1=O (stereo partly shown) , please. 0.074

Tell me the measured IC50 of COC(=O)c1cccc(C)c1S(=O)(=O)N1CC[C@@]23CC(=O)C(OC)=C[C@@H]2[C@@H]1Cc1ccc(OC)c(O)c13 , please. 7.3
